- protocol text: Drug recovery in Homo sapiens (human) Caco2 cells at 100 uM by HPLC-UV analysis
- Type: ADME, cell-based, Caco-2
- setup conditions: Caco-2, read-out: Drug recovery
parameter measured: recovery at 100 µM (%)

[[record]]
compound = "CC1(C)CCc2cc3c(=O)c4ccccc4oc3c(O)c2O1"
reported = 29.4

[[record]]
compound = "O=c1c2ccccc2oc2c(O)c(O)ccc12 [3,4-DIHYDROXYXANTHONE]"
reported = 53.6

[[record]]
compound = "O=c1c2ccccc2oc2ccc(O)c(O)c12"
reported = 40.7

